# target-entity: T1, APBA1_2, Q02410
# T1 sequence (Q02410 742-832, limits assumed, looked up): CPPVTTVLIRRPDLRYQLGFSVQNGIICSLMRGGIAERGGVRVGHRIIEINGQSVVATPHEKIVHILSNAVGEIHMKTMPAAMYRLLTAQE
# experiment-description: holdup assay
# Set-up: key: below the threshold = too weak to quantify, mostly under pKd 3.1 to 4
# settings: plain residues with an end cap or a label only (N-terminal biotin on a linker: ado-ado)
Entry flag: class 1 if pKd reaches 4; class 0 if it does not.

Example cases with answers are listed next.
YYKRPVQEWV [MMP24, Q9Y5R2] | class 1
GQEEQVTTRL [TRPC5, Q9UL62] | class 0
EVEEFPETSV [TRPV3, Q8NET8] | class 1

Query: Is pKd at least 4? Consider QGPVETESVV [SLC45A4, Q5BKX6]
Result: class 0

Query: Then TKGPRGPTRV [SAPCD1, Q5SSQ6] ?
Result: class 1
